Data origin: PubChem BioAssay (NCI)

Tested on: A498 renal
Experiment: NCI tumour cell line growth inhibition, 48 h
Measured TGI of individual entries
result.type: TGI

# compound, tgt, result.type, experimental.result
rows = [
    ("COC(=O)c1ccccc1CC1Cc2ccc3c(c2C1)CCC3 (centres undefined)", "A498 renal", "TGI", "> 100 µM"),
    ("N#CCCCC[N+]12CN3CN(CN(C3)C1)C2", "A498 renal", "TGI", "> 100 µM"),
    ("Cc1ccccc1C(=O)c1ccccc1O", "A498 renal", "TGI", "> 100 µM"),
    ("N#CN=C(N)NC(=O)/C=C/C=C/c1ccc(Cl)cc1", "A498 renal", "TGI", "> 100 µM"),
    ("COc1cc(C)c(/C=C/C(=O)N2C(=O)OC[C@@H]2c2ccccc2)c(C)c1", "A498 renal", "TGI", "> 100 µM"),
    ("Cn1c(=O)nc2n(-c3cccc(Br)c3)c3ccccc3nc-2c1=O", "A498 renal", "TGI", "22.1 µM"),
    ("Nc1nc(N)c(NC(=O)CCCO)c(=O)[nH]1", "A498 renal", "TGI", "> 100 µM"),
    ("CCCCc1c2c(nc3c1CCCC3O)CCCC2 (centres undefined)", "A498 renal", "TGI", "> 100 µM"),
    ("Cc1ccc(NC(=O)CSc2nc(C)nc3c2sc(=S)n3-c2ccccc2)cc1", "A498 renal", "TGI", "> 10 µM"),
    ("BrC1=CC=C2NC=CC3=CC=NC1C32 (centres undefined)", "A498 renal", "TGI", "85.4 µM"),
    ("CC(=O)[CH-]C(=O)c1ccccc1.CC(=O)[CH-]C(=O)c1ccccc1.CC(C)CCCC(C)[C@H]1CCC2[C@@H]3CC=C4C[C@@H]([O-])CC[C@]4(C)C3CC[C@@]21C.CC[O-].[Ti+4] (some centres undefined)", "A498 renal", "TGI", "> 100 µM"),
    ("CC(OC(C)(C)C)[C@H](NC(=O)OC(C)(C)C)C(=O)O (some centres undefined)", "A498 renal", "TGI", "> 100 µM"),
    ("C/C(=N/Nc1nc2ccccc2n1C)c1ccccn1", "A498 renal", "TGI", "0.81 µM"),
    ("O=C1C(=O)c2ccccc2C(O)=C1CC=C(Br)Br", "A498 renal", "TGI", "31.3 µM"),
]
